Where do these numbers come from? They come from patent US20250352659A1.

- method notes: Conjugator-antibody conjugate maleimide hydrolysis (ring opening) kinetics by reduced LCMS
- Type: physicochemical
- measurement setup: pH 7, time point 5 h
Answer each item with its documented RO (%) HC.
// return numeric value only (unit: %, not printed)

// RO (%) HC value for CC(C)N(CCC(=O)N(C)C)C(=O)OCC(CN)N1C(=O)C=CC1=O (stereo not drawn) : 99.07

// RO (%) HC value for CN(C)C(=O)CN(C)C(=O)OCC(CN)N1C(=O)C=CC1=O (stereo not drawn) : 99.49

// RO (%) HC value for NCC(COC(=O)NCCOCCOCCOCCOCCC(=O)O)N1C(=O)C=CC1=O (stereo not drawn) : 90.01

// RO (%) HC value for CN(C)C(=O)CCOCC(N)CN1C(=O)C=CC1=O (stereo not drawn) : 88.54

// RO (%) HC value for CN(C)C(=O)CCNC(=O)OCCC(CN)N1C(=O)C=CC1=O (stereo not drawn) : 100.00

// RO (%) HC value for CN(C)C(=O)CCCCC(CN)N1C(=O)C=CC1=O (stereo not drawn) : 91.86
